The reader will find reported vapor or sublimation pressure values listed item by item below.
- assay context: 293.2 K; Liquid; Transpiration method
// units = kPa; emit number, no label

For orientation, consider the following solved cases.
- compound: "COC(=O)CC(C)(C)C [methyl 3,3-dimethylbutanoate]"
  readout units: "kPa"
  result number: 1.131
- compound: "CCCCCCC(=O)OC [methyl heptanoate]"
  readout units: "kPa"
  result number: 0.1164

For the compound CCCCOC(=O)C(C)(C)C [butyl 2,2-dimethylpropanoate] , what vapor or sublimation pressure is on record?
0.2073

Quick one: vapor or sublimation pressure of CCCC(=O)OC(C)(C)CC [1,1-dimethylpropyl butanoate] ?
0.2021

Given CCCC(=O)OC [methyl butanoate] , state its recorded vapor or sublimation pressure.
3.382

Need vapor or sublimation pressure of CC(C)COC(=O)C(C)C [2-methylpropyl 2-methylpropanoate] , thanks.
0.4346

----------
- assay context: 303.2 K; Liquid; Transpiration method
± gives the expanded uncertainty stated by the source.
metric: vapor or sublimation pressure

- compound: "COC(=O)CC(C)(C)C [methyl 3,3-dimethylbutanoate]"
  vapor or sublimation pressure: "2.042 ± 0.14 kPa"
- compound: "CCCC(=O)OC(C)(C)CC [1,1-dimethylpropyl butanoate]"
  vapor or sublimation pressure: "0.4074 ± 0.029 kPa"
- compound: "CCCC(=O)OC [methyl butanoate]"
  vapor or sublimation pressure: "5.697 ± 0.4 kPa"

Query compound follows.
Tell me the measured vapor or sublimation pressure of CCCCOC(=O)C(C)CC (centres undefined) , please.
0.2142 ± 0.015 kPa

----------
- assay context: 308.2 K; Liquid; Transpiration method
vapor or sublimation pressure strictly under 0.6 kPa means TRUE; at 0.6 kPa or over means FALSE.

- compound: "CCCC(=O)OC(C)(C)CC [1,1-dimethylpropyl butanoate]"
  class: "TRUE"
- compound: "CCCCC(=O)OC [methyl pentanoate]"
  class: "FALSE"

Consider COC(=O)CC(C)(C)C [methyl 3,3-dimethylbutanoate] . Does its vapor or sublimation pressure lie strictly below 0.6 kPa?
FALSE

Determine whether this compound shows vapor or sublimation pressure lower than 0.6 kPa (ties excluded): CCCCOC(=O)C(C)CC (stereo not given) [butanoic acid, 2-methyl-, butyl ester]
TRUE

Lab log: compare recorded vapor or sublimation pressure with 0.6 kPa; is it strictly lower for CCCCCCC(=O)OC [methyl heptanoate] ?
TRUE

----------
- assay context: 278.2 K; Liquid; Transpiration method
metric: vapor or sublimation pressure (kPa)
Give your result in kPa as a bare value.

Look over these answered cases.
- molecule: "CCCCOC(=O)C(C)CC (stereo not given)"
  readout units: "kPa"
  vapor or sublimation pressure: 0.03181
- molecule: "CCCCC(=O)OC [methyl pentanoate]"
  readout units: "kPa"
  vapor or sublimation pressure: 0.4198

Need vapor or sublimation pressure, item CCCC(=O)OC(C)(C)CC [1,1-dimethylpropyl butanoate]
0.06508

Find the recorded vapor or sublimation pressure belonging to CC(C)COC(=O)C(C)C [2-methylpropyl 2-methylpropanoate] and report it.
0.1479

Which vapor or sublimation pressure value belongs to CCCC(=O)OC [methyl butanoate] ?
1.397

----------
Each entry below carries its reported vapor or sublimation pressure.
- assay context: 298.2 K; Liquid; Transpiration method
Give a bare numeral; the unit kPa is implied.

Some compounds with known vapor or sublimation pressure results, for comparison:
- compound: "CCCCCCC(=O)OC [methyl heptanoate]"
  metric: "vapor or sublimation pressure"
  result number: 0.1642
- compound: "CCC(=O)OC(C)(C)CC [1,1-dimethylpropyl propanoate]"
  metric: "vapor or sublimation pressure"
  result number: 0.5971
- compound: "CC(C)COC(=O)C(C)C [2-methylpropyl 2-methylpropanoate]"
  metric: "vapor or sublimation pressure"
  result number: 0.6003
- compound: "COC(=O)CC(C)(C)C [methyl 3,3-dimethylbutanoate]"
  metric: "vapor or sublimation pressure"
  result number: 1.533

Next:
Reported vapor or sublimation pressure for CCCC(=O)OC(C)(C)CC [1,1-dimethylpropyl butanoate] : what is it?
0.2935

Recorded values, source the NIST ThermoML archive (doi:10.1016/j.fluid.2008.02.001).
